System: Saccharomyces cerevisiae
Assay: protein stability index of tFT-peptide fusion (C-terminal peptide) (PSI (0-1 scale)); higher = more stable (slower turnover)
Condition set: genetic background: wild type; temperature: 30 C
Listing of recorded protein stability index by entry.
Write the number on its own, no unit after it.

Worked cases, protein stability index given:
PLPPLPPPTAPP 0.693
DHLQGRPDITDI 0.72
PRCIELASMRRP 0.681
DPHRTRPRITLP 0.715
GRACCILWGGPE 0.694

Enter reported protein stability index observed with Saccharomyces cerevisiae for FPLSLCPHRPSL
0.716

Follow-up item: PLRPPSSPLWHT
0.694

* * *

Tested on: Saccharomyces cerevisiae
Assay: protein stability index of tFT-peptide fusion (C-terminal peptide) (PSI (0-1 scale)); higher = more stable (slower turnover)
Condition set: genetic background: wild type; temperature: 30 C
Measured metric: protein stability index
Write the number on its own, no unit after it.

Sequence input	protein stability index
FGNDMVINFETD [UTP22 C-terminal 12 aa]	0.731
VARRITDHTCLM [YLR364C-A C-terminal 12 aa]	0.696
LFQPIIVKPLRS [YHR007C-A C-terminal 12 aa]	0.625
IIAIVFKILSPN [FAR10 C-terminal 12 aa]	0.347
SRTPPARRQRHR [CWC22 C-terminal 12 aa]	0.671
GVRKEFYELKRD [PRE7 C-terminal 12 aa]	0.693
FIKLSLASSFSN [ISF1 C-terminal 12 aa]	0.661
WLPELALLCALD [LAS21 C-terminal 12 aa]	0.633
ERRLSDLQQYHI [TMA10 C-terminal 12 aa]	0.683
PLYSMVAGENSL [SPO23 C-terminal 12 aa]	0.688

Enter reported protein stability index observed with Saccharomyces cerevisiae for EDDFGPKPKFFI [SWE1 C-terminal 12 aa]
0.683

Follow-up item: YPKFIKGHEEYF [BSC6 C-terminal 12 aa]
0.715

Follow-up item: ESDDDMGFGLFD [RPP0 C-terminal 12 aa]
0.717

* * *

Listing of recorded protein stability index by entry.
Test system: Saccharomyces cerevisiae
Assay: protein stability index of tFT-peptide fusion (C-terminal peptide) (PSI (0-1 scale)); higher = more stable (slower turnover)
Condition set: genetic background: wild type; temperature: 30 C
Write the number on its own, no unit after it.

GGFTAPLVLSPR 0.686
PAPLPPPAPSST 0.69
PPSVPSRLSHVL 0.69

Shift focus to the following entry.
Consider the sequence LGWGRGGPLSGG and give its measured protein stability index.
0.694

* * *

Test system: Saccharomyces cerevisiae
Assay: protein stability index of tFT-peptide fusion (C-terminal peptide) (PSI (0-1 scale)); higher = more stable (slower turnover)
Condition set: genetic background: cdc53-1; temperature: 37 C
Listing of recorded protein stability index by entry.
Write the number on its own, no unit after it.

Worked cases, protein stability index given:
GYAFPPPHRVRT 0.742
RGAVRVAWYPVL 0.737
VGLLFGWVWSLW 0.724
HCSRMIIIFLFL 0.425
YCCDYFMFVLVV 0.189

Enter reported protein stability index observed with Saccharomyces cerevisiae for SVRGGSFLVHLC
0.758

Follow-up item: GWMLVVWCGVFG
0.235

Follow-up item: YLMVSKMSLRIG
0.643

Follow-up item: VFRECSFFLVCC
0.287
